target: D(1A) dopamine receptor (Bos taurus); assay: Binding affinity towards dopamine receptor D1 in calf striatum
Sequence (Q95136 whole entry): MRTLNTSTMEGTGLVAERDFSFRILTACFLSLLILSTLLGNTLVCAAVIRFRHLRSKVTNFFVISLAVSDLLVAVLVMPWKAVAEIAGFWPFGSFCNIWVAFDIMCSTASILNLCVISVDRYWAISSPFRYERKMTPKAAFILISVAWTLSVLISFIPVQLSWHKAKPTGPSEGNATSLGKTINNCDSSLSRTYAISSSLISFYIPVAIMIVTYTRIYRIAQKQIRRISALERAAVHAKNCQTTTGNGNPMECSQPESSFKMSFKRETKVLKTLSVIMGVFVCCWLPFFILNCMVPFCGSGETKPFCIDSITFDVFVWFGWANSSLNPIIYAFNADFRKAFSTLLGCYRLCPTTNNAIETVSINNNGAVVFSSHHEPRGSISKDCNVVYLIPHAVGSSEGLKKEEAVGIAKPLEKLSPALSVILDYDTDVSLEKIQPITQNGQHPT
pIC50 for assorted compounds
# pIC50 is unitless: minus log10 of the molar concentration; print number only

COc1cccc2c1CC(N1CCCC1)CO2 (centres undefined); 3.00
CCCN(CCCCN1C(=O)c2ccccc2S1(=O)=O)C1COc2cccc(OC)c2C1 (centres undefined); 4.30
CCCN(CCCCn1c(=O)oc2cccnc21)C1COc2cccc(OC)c2C1 (centres undefined); 4.52

Prompt: What value of measured pIC50 is listed for CCCN(CCCCN1C(=O)CC2(CCCC2)CC1=O)C1COc2cccc(O)c2C1 (centres undefined) ?
Completion: 4.00

Prompt: Let us now turn to CCCN(CCCN1C(=O)c2ccccc2C1=O)C1COc2cccc(OC)c2C1 (centres undefined)
Completion: 4.40

Prompt: Let us now turn to CCCN(CCCCN1C(=O)CC2(CCCC2)CC1=O)C1COc2ccccc2C1 (centres undefined)
Completion: 4.40

Prompt: Let us now turn to CCCN(CCCN1C(=O)CC2(CCCC2)CC1=O)C1COc2cccc(OC)c2C1 (centres undefined)
Completion: 5.00

Prompt: Let us now turn to CCCN(CCCCN1C(=O)CC2(CCCC2)CC1=O)C1COc2cccc(OC)c2C1.O=C(O)C(=O)O (single isomer, unassigned; (-))
Completion: 4.70

Prompt: Let us now turn to CCCN(CCC)C1COc2ccc3ccccc3c2C1 (centres undefined)
Completion: 4.40

Prompt: Let us now turn to CCCN(CCC)C1COc2cccc(O)c2C1 (centres undefined)
Completion: 4.00

###

biological target: 5-hydroxytryptamine receptor 1A (Rattus norvegicus); experiment: Binding affinity against 5-hydroxytryptamine 1A (5-HT1A) receptor in rat hippocampus membranes
Attribute measured: IC50 (nM)
The response must be a number in nM with no trailing unit.

Known IC50 results, listed for orientation:
CCCN(CCCON1C(=O)CC2(CCCC2)CC1=O)C1COc2cccc(OC)c2C1 (stereo not given); 1
CCCN(CCCCN1CCCCC1)C1COc2cccc(OC)c2C1 (stereo not given); 2
CCCN(CCNS(=O)(=O)c1ccc(C)cc1)C1COc2cccc(OC)c2C1 (stereo in doubt; 15b); 2
CCCN(CCCNS(=O)(=O)c1ccc(C)cc1)C1COc2cccc(OC)c2C1 (stereo not given); 3
CCCN(CCCCN1C(=O)c2ccccc2C1=O)C1COc2cccc(OC)c2C1 (stereo not given); 50
CCCN(CCCCN1C(=O)CC(C)(C)CC1=O)C1COc2cccc(OC)c2C1 (stereo not given); 4

Prompt: What value of measured IC50 is listed for CCCN(CCC)C1COc2ccccc2C1 (stereo not given) ?
Completion: 400

Prompt: Let us now turn to CCCN(CCN1C(=O)c2ccccc2C1=O)C1COc2cccc(OC)c2C1 (stereo not given)
Completion: 800

Prompt: Let us now turn to CCCN(CCCCNC(=O)c1ccc(F)cc1)C1COc2cccc(OC)c2C1 (stereo not given)
Completion: 0.4

Prompt: Let us now turn to CCCN(CCC)C1COc2cccc(O)c2C1 (stereo not given)
Completion: 4

###

Target: Alpha-2A adrenergic receptor (Bos taurus, UniProt Q28838)
Sequence (Q28838 whole entry): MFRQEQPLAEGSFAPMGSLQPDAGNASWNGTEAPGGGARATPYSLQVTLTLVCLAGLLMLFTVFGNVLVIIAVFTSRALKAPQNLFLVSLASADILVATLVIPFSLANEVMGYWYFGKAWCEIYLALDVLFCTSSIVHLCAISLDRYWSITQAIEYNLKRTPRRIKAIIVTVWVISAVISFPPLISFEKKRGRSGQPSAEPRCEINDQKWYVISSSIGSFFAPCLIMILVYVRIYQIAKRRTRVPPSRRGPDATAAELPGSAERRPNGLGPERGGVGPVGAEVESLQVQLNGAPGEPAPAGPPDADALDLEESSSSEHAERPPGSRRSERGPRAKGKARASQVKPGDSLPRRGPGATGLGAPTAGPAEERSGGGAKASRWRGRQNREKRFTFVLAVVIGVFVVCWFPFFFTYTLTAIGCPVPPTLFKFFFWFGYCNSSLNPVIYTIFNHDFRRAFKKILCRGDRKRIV
IC50 for assorted compounds
The response must be a number in µM with no trailing unit.

Known IC50 results, listed for orientation:
CCC[N+](C)(CCCCN1C(=O)CC2(CCCC2)CC1=O)C1COc2cccc(OC)c2C1 (centres undefined); 1000
CCCN(CCCCNS(=O)(=O)c1ccc(C)cc1)C1COc2cccc(OC)c2C1 (stereo in doubt; 15d); 10
CCCN(CCCCn1c(=O)oc2cccnc21)C1COc2cccc(OC)c2C1 (centres undefined); 5
CCCN(CCCCN1C(=O)C2CCCC2C1=O)C1COc2cccc(OC)c2C1 (stereo in doubt; 9k); 5
CCCN(CCCCNC(=O)c1ccc(F)cc1)C1COc2cccc(OC)c2C1 (centres undefined); 4
CCCN(CCCCCN1C(=O)CC2(CCCC2)CC1=O)C1COc2cccc(OC)c2C1 (centres undefined); 0.1
CCCN(CCC)C1CCc2cccc(O)c2C1 (centres undefined); 1
CCCN(CCCCN1C(=O)CC2(CCCC2)CC1=O)C1COc2cccc(OC)c2C1.O=C(O)C(=O)O (single isomer, unassigned; (+)); 0.02

# input for lookup
Prompt: What value of measured IC50 is listed for CCCN(CCC)C1COc2ccc3ccccc3c2C1 (centres undefined) ?
Completion: 10

###

Target: Alpha-1A adrenergic receptor (Bos taurus, UniProt P18130)
Sequence (P18130 whole entry): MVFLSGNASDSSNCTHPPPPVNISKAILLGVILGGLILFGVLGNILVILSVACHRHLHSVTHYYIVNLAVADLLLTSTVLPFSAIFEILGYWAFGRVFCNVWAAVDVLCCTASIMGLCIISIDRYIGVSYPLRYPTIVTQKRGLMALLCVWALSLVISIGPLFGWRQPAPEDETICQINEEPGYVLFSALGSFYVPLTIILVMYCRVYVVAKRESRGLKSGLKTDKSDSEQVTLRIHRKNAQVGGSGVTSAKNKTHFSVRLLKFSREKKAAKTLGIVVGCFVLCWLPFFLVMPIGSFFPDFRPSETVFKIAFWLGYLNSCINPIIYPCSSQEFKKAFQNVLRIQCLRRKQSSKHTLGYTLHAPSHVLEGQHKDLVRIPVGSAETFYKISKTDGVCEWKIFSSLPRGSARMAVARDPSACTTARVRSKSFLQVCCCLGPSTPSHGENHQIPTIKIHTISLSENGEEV
pIC50: −log10 of the molar value.
Short version: pIC50 at least 5 is true, less is false.

Solved entries (count: 3):
CCCN(CCCCNC(=O)c1ccc(F)cc1)C1COc2cccc(OC)c2C1 (stereo not drawn); true
CCCN(CCC)C1COc2cccc(OC)c2C1 (stereo in doubt; (-)-4); true
CCCN(CCN1C(=O)CC2(CCCC2)CC1=O)C1COc2cccc(OC)c2C1 (stereo not drawn); false

Now, please, on to the next molecule.
Prompt: Entry CCCN(CCNC(C)=O)C1COc2cccc(OC)c2C1 (stereo not drawn) : is its pIC50 no less than 5?
Completion: false

###

target: 5-hydroxytryptamine receptor 1A (Rattus norvegicus, UniProt P19327); assay: Binding affinity against 5-hydroxytryptamine 1A (5-HT1A) receptor in rat hippocampus membranes
Sequence (P19327 whole entry): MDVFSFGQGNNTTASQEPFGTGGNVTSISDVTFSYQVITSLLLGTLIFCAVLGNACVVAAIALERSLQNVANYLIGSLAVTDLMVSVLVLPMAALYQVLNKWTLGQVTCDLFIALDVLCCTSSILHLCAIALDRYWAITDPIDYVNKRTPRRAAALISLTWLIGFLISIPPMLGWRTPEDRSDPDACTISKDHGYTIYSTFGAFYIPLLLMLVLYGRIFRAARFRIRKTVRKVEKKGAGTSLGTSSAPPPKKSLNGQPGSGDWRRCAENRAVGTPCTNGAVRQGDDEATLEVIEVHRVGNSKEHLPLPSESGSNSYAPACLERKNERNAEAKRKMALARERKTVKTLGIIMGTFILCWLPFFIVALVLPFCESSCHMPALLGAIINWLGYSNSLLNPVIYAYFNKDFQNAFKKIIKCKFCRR
IC50 for assorted compounds
The response must be a number in nM with no trailing unit.

CCCN(CCCCNS(=O)(=O)c1ccc(C)cc1)C1COc2cccc(OC)c2C1 (single isomer, unassigned; (+)); 0.7
CCCN(CCCCn1c(=O)oc2cccnc21)C1COc2cccc(OC)c2C1 (centres undefined); 5
COc1cccc2c1CC(N1CCCC1)CO2 (centres undefined); 7
CCCN(CCCCN1CC2CCCC2C1=O)C1COc2cccc(OC)c2C1 (centres undefined); 1
CCCN(CCCCN1C(=O)CC2(CCCC2)CC1=O)C1COc2cccc(OC)c2C1.O=C(O)C(=O)O (single isomer, unassigned; (+)); 0.3
CCCN(CCCCN1C(=O)CC2(CCCC2)CC1=O)C1COc2cccc(OC)c2C1.O=C(O)C(=O)O (stereo in doubt; 9g); 0.2
CCCN(CCC)C1COc2ccc3ccccc3c2C1 (centres undefined); 20000
CCCN(CCC)C1COc2cccc(OC)c2C1 (stereo in doubt; 4); 20

# input for lookup
Prompt: Report IC50 for COc1cccc2c1CC(NCCCCN1C(=O)c3ccccc3C1=O)CO2 (centres undefined) tested on 5-hydroxytryptamine receptor 1A (Rattus norvegicus, UniProt P19327).
Completion: 90

###

IC50 for assorted compounds
molecular target: 5-hydroxytryptamine receptor 1B (Rattus norvegicus, UniProt P28564)
Sequence (P28564 whole entry): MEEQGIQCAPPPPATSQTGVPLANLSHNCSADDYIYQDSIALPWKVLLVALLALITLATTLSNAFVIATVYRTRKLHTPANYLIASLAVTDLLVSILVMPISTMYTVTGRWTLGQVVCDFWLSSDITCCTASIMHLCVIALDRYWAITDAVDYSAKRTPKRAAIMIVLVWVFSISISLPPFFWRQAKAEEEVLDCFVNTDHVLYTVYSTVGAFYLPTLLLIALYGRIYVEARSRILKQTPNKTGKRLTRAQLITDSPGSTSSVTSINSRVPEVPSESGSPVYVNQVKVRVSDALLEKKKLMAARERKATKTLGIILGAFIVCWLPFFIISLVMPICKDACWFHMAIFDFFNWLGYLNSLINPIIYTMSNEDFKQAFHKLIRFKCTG

CCCN(CCNS(=O)(=O)c1ccc(C)cc1)C1COc2cccc(OC)c2C1 (stereo in doubt; (-)-15b); > 1000 µM
CCCN(CCC)C1COc2cccc(O)c2C1 (stereo not drawn); > 100 µM

Prompt: What value of measured IC50 is listed for CCCN(CCC)C1COc2cccc(OC)c2C1 (single isomer, unassigned; (+)) ?
Completion: 0.51 µM

Prompt: Let us now turn to CCCN(CCC)C1COc2cccc(OC)c2C1 (stereo in doubt; 4)
Completion: 20 µM

Prompt: Let us now turn to CCCN(CCCCN1CCOCC1)C1COc2cccc(OC)c2C1 (stereo not drawn)
Completion: > 1000 µM
